SUBJECT_OF_TEST: recombinant Axl tyrosine kinase (Homo sapiens)
Construct: encompassing amino acids 473 to 894 of Axl; GST (N); made in house; host or cells: SF126 insect cells
Sequence (P30530 473-894): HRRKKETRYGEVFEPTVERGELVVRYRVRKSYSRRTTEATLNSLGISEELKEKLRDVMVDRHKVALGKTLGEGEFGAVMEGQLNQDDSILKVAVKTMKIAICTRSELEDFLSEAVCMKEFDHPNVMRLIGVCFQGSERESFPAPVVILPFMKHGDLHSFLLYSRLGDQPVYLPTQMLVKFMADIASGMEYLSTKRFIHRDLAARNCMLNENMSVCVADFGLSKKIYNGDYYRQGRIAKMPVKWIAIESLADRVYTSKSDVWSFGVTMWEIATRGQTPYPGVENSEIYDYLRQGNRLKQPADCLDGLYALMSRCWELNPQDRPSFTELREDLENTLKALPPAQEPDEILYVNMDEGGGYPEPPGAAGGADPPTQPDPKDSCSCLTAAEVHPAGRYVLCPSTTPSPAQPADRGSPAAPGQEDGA
TEST_PROTOCOL: In vitro Axl kinase assay (AlphaScreen), Test (a)
Type: biochemical
CONDITION_SUMMARY: test compound at 1 μM; first value quoted
Description: Test compounds were prepared as 10 mM stock solutions in dimethylsulphoxide (DMSO) and diluted in DMSO as required. Aliquots (120 nl) of compound dilutions were filled into the wells of a Greiner 384-well low volume (LV) white polystyrene plate (Greiner Bio-one) using acoustic dispensing (Labcyte Echo 550). […]
QUANTITY_KIND: % Axl tyrosine kinase inhibition at 1 μM concentration (%)

Consider the following illustrative entries.
Nc1ncc(-c2cccc(CN3CCCC3)c2)cc1-c1nc2ncccc2o1 [Example 10A.7]
95.9
Cc1ccc2nc(-c3cc(-c4cnn(C5CCN(C)CC5)c4)cnc3N)oc2c1
99.7
Nc1ncc(-c2cnn(CCCN3CCCC3)c2)cc1-c1nc2ccccc2o1
99.9
Nc1ncc(-c2ccc(C(=O)N3CCCCC3CN3CCCCC3)cc2)cc1-c1nc2cccnc2o1 (stereo not shown) [Example 45A.8]
99.8
CS(=O)(=O)c1cccc(-c2cnc(N)c(-c3nc4ccccc4o3)c2)c1
97.1
COCCOCC(=O)N1CCC(n2cc(-c3cnc(N)c(-c4nc5ncccc5o4)c3)cn2)CC1
99.7

P: CN1CCCC(COc2ccc(-c3cnc(N)c(-c4nc5ncccc5o4)c3)cc2)C1 (stereo not shown) [Example 43B.12]
Q: COCCOc1ccc(-c2cnc(N)c(-c3nc4ccccc4o3)c2)cc1
In: Compare the recorded % Axl tyrosine kinase inhibition at 1 μM concentration of P and Q ; state which is larger. Your answer should be the label of the entry you select.
Out: P
